Reported IC50 values, cytochrome P450 2D6 (Homo sapiens, UniProt P10635).

Molecule | IC50
Cc1cc(Nc2ncc(Cl)c(Nc3cn(C)nc3S(=O)(=O)C(C)C)n2)c(OC2CC2)cc1C1CCN(CCN(C)C)CC1 | > 10 µM
CCN1CCC(c2cc(OC3CC3)c(Nc3ncc(Cl)c(Nc4cn(C)nc4S(=O)(=O)C(C)C)n3)cc2C)CC1 | > 10 µM
CC(=O)N1CCN([C@H]2CC[C@H](c3cc(OC4CC4)c(Nc4ncc(Cl)c(Nc5cn(C)nc5S(=O)(=O)C(C)C)n4)cc3C)CC2)CC1 | > 10 µM
Cc1cc(Nc2ncc(Cl)c(Nc3cn(C)nc3S(=O)(=O)C(C)C)n2)c(OC2CC2)cc1C1CCC(NS(C)(=O)=O)CC1 (stereo not drawn) | > 10 µM

Provide cytochrome P450 2D6 (Homo sapiens, UniProt P10635) IC50 reading for Cc1cc(Nc2ncc(Cl)c(Nc3cn(C)nc3S(=O)(=O)C(C)C)n2)c(OC2CC2)cc1C1CCN(C)CC1 .
> 10 µM

State the measured IC50 (cytochrome P450 2D6 (Homo sapiens, UniProt P10635)) of Cc1cc(Nc2ncc(Cl)c(Nc3cn(C)nc3S(=O)(=O)C(C)C)n2)c(OC2CC2)cc1C1CCN(C(=O)CC#N)CC1
> 10 µM

###

biological target: L1196M mutant ALK kinase (Homo sapiens, UniProt Q9UM73, L1196M); construct: purchased Sino-US Crown Bioscience, Inc. batch number ALKm_20110923; assay: HTRF KinEASE-TK assay, inhibitory activity on L1196M mutant ALK kinase; format: biochemical; settings: L1196M mutant ALK 1 ng/μl, substrate 1 μM, ATP 5 μM, 30° C. 35 minutes, read-out: Inhibition on ALK kinases (L1196M mutant), IC50
Sequence (Q9UM73 19-1620 L1196M): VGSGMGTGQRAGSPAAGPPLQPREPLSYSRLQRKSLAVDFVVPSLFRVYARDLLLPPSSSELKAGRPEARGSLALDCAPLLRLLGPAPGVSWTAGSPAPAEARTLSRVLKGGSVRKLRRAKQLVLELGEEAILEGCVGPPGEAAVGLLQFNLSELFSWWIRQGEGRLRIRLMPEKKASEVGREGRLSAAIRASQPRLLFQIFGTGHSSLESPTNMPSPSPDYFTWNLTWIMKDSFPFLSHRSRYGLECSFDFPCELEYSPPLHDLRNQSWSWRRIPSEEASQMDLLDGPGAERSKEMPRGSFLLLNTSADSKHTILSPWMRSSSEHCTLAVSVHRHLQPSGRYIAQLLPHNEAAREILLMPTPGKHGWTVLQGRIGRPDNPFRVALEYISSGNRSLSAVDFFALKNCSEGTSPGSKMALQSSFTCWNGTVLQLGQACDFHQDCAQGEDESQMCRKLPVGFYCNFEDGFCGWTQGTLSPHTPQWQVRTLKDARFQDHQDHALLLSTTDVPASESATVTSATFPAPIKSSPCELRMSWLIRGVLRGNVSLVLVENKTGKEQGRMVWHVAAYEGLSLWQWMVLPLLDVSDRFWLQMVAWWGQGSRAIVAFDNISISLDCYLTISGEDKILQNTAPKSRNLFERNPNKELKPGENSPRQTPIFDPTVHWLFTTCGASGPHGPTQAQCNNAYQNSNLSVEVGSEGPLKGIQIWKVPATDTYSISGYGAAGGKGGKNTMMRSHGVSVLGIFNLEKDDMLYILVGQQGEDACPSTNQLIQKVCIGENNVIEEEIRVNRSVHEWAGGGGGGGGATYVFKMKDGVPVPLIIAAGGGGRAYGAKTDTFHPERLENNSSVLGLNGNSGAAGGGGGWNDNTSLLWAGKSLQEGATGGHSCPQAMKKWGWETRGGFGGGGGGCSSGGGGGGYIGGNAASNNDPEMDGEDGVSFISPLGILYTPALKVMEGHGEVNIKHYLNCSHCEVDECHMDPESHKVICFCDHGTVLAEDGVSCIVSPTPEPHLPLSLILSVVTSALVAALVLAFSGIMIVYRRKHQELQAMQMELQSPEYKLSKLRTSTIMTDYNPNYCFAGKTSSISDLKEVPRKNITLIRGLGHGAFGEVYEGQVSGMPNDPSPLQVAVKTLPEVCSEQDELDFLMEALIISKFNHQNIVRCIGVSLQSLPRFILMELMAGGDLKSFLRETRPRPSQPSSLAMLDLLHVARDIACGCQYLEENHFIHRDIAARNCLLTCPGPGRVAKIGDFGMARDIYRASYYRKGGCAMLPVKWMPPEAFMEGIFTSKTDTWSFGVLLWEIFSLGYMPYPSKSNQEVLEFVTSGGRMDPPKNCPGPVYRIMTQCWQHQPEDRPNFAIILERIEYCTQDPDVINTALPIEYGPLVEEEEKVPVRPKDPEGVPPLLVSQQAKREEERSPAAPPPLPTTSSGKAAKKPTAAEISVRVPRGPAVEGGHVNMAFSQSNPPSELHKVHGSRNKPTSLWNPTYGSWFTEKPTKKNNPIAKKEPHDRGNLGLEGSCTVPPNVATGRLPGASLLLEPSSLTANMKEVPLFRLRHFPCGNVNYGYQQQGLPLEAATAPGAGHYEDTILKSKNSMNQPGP
Metric Name: IC50 (nM)
Just the number in nM, nothing appended.

Past entries and their recorded results:
Compound | IC50 (nM)
CC(C)S(=O)(=O)c1nn(C)cc1Nc1nc(Nc2ccc(C3CCN(C)CC3)cc2OC2CC2)ncc1Cl | 5
Cc1cc(Nc2ncc(Cl)c(Nc3cn(C)nc3S(=O)(=O)CC(C)C)n2)c(OC2CC2)cc1[C@H]1CC[C@H](NC(C)C)CC1 | 22

For L1196M mutant ALK kinase (Homo sapiens, UniProt Q9UM73, L1196M), give the measured IC50 of the entry Cc1cc(Nc2ncc(Cl)c(Nc3cn(C)nc3S(=O)(=O)C(C)C)n2)c(OC(C)C)cc1C1CCNC1 (stereo not shown)
5

State, for L1196M mutant ALK kinase (Homo sapiens, UniProt Q9UM73, L1196M), measured IC50 of the compound listed here: Cc1cc(Nc2ncc(Cl)c(Nc3cn(C)nc3S(=O)(=O)C(C)C)n2)c(OC(F)(F)F)cc1C1CCNCC1
13

For L1196M mutant ALK kinase (Homo sapiens, UniProt Q9UM73, L1196M), give IC50 of the listed compound: Cc1cc(Nc2ncc(Cl)c(Nc3cn(C)nc3S(=O)(=O)C(C)C)n2)c(OC2CC2)cc1C1CCN(CCN(C)C)CC1
5

Look up and report measured IC50 (L1196M mutant ALK kinase (Homo sapiens, UniProt Q9UM73, L1196M)) for the following compound: Cc1cc(Nc2ncc(Cl)c(Nc3cn(C)nc3S(=O)(=O)C(C)C)n2)c(OC2CC2)cc1C1CCN(C)CC1F (stereo not shown)
10

Specify the recorded IC50 for Cc1cc(Nc2ncc(Cl)c(Nc3cn(C)nc3S(=O)(=O)C(C)C)n2)c(C(F)(F)F)cc1C1CCN(C)CC1 , system: L1196M mutant ALK kinase (Homo sapiens, UniProt Q9UM73, L1196M).
49

State IC50 (L1196M mutant ALK kinase (Homo sapiens, UniProt Q9UM73, L1196M)) of Cc1cc(Nc2ncc(Cl)c(Nc3cn(C)nc3S(=O)(=O)CC(C)C)n2)c(OC2CC2)cc1C1CCNCC1 .
15

Answer with IC50 of Cc1cc(Nc2ncc(C)c(Nc3cn(C)nc3S(=O)(=O)C(C)C)n2)c(OC2CC2)cc1C1CCN(C)CC1 measured for L1196M mutant ALK kinase (Homo sapiens, UniProt Q9UM73, L1196M).
6
